All figures here come from ChEMBL document CHEMBL5678803.

test: Cmax in rat at 2 mg/kg, po; assay type: ADME, organism-based; conditions: in vivo
ASSAY_READOUT: Cmax

-- ask Look up Cmax: CCC(=N\O)/C(C)=C/c1ccc(F)cc1
-- reply 720 nM

###

assay: Drug concentration in rat at 6.2 mg/kg, po measured after 60 mins; type: ADME, organism-based; settings: in vivo, read-out: Drug uptake
ASSAY_READOUT: concentration at 1 h (nM)
Give a bare numeral; the unit nM is implied.

-- ask Look up concentration at 1 h: CCC(=N\O)/C(C)=C/c1ccc(F)cc1
-- reply 1540

###

assay: Drug concentration in rat at 62.1 mg/kg, po measured after 60 mins; format: ADME, organism-based; conditions: in vivo, read-out: Drug uptake
ASSAY_READOUT: concentration at 1 h
Please format your answer as a value with the unit trailing.

-- ask Look up concentration at 1 h: CCC(=N\O)/C(C)=C/c1ccc(F)cc1 [A-079]
-- reply 11.8 µM

###

molecular target: Transient receptor potential cation channel subfamily V member 4 (Homo sapiens); assay: Antagonist activity at human TRPV4 expressed in HEK293F cells assessed as inhibition of mOsmo-induced increase in intracellular Ca2+ level by FLIPR-based Ca2+ assay
Sequence (Q9HBA0 whole entry): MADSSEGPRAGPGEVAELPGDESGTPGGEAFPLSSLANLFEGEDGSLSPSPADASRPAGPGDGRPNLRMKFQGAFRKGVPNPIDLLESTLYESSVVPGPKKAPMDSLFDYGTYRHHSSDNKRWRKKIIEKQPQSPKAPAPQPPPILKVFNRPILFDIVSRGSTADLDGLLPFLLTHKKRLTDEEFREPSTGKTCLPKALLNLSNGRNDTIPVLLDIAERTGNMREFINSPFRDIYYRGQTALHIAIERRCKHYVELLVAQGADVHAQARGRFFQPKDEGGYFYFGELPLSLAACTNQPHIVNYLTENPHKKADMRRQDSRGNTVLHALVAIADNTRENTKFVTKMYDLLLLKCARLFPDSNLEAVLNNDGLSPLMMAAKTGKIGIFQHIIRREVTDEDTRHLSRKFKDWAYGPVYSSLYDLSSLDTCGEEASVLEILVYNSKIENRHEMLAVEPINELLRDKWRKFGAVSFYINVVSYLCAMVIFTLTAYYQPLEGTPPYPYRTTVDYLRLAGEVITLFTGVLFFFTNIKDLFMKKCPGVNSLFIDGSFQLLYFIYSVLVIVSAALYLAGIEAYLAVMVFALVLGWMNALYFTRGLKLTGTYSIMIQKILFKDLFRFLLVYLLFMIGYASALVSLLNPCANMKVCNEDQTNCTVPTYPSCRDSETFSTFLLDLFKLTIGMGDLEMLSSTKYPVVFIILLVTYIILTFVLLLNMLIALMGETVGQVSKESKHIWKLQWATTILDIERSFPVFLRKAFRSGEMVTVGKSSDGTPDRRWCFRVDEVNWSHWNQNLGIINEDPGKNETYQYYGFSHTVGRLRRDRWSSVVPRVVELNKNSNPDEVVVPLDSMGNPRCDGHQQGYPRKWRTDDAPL
ASSAY_READOUT: IC50

-- ask Look up IC50: CCC(=N\O)/C(C)=C/c1ccc(F)cc1
-- reply > 100 µM

###

assay: Tmax in rat at 2 mg/kg, po; type: ADME, organism-based; details: in vivo
ASSAY_READOUT: Tmax (min)
Give a bare numeral; the unit min is implied.

-- ask Look up Tmax: CCC(=N\O)/C(C)=C/c1ccc(F)cc1 [A-079]
-- reply 30

###

target: Transient receptor potential cation channel subfamily V member 2 (Rattus norvegicus, UniProt Q9WUD2); test: Antagonist activity at rat TRPV2 expressed in HEK293F cells assessed as inhibition of 2APB-induced increase in intracellular Ca2+ level by FLIPR-based Ca2+ assay
Sequence (Q9WUD2 whole entry): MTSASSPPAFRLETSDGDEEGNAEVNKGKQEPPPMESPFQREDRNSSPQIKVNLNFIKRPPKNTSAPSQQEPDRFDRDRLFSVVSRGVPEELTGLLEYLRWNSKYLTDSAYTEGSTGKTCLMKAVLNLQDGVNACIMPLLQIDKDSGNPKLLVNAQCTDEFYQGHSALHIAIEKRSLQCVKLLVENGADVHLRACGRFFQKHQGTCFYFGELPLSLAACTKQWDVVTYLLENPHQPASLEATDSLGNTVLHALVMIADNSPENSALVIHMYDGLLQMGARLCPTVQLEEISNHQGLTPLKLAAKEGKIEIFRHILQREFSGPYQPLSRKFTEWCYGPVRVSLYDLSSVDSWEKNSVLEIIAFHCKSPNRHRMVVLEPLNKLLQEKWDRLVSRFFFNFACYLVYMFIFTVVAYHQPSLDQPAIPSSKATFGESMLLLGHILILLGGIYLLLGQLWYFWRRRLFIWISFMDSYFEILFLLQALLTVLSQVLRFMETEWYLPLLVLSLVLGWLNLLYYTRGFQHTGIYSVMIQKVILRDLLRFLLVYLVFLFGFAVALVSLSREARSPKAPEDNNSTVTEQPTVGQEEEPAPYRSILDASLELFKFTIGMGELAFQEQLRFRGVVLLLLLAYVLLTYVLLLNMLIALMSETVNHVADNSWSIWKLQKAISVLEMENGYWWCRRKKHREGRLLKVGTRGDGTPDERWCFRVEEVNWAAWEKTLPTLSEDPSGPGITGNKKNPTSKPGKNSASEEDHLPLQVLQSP
pIC50: −log10 of the molar value.
ASSAY_READOUT: pIC50

-- ask Look up pIC50: CCC(=N\O)/C(C)=C/c1ccc(F)cc1 [A-079]
-- reply < 4.00

###

assay: Half-life in rat at 2 mg/kg, po; format: ADME, organism-based; details: in vivo
ASSAY_READOUT: half-life (min)
Give a bare numeral; the unit min is implied.

-- ask Look up half-life: CCC(=N\O)/C(C)=C/c1ccc(F)cc1
-- reply 48.6

###

test: Oral bioavailability in rat at 2 mg/kg; type: ADME, organism-based; details: in vivo
ASSAY_READOUT: bioavailability (%)
Give a bare numeral; the unit % is implied.

-- ask Look up bioavailability: CCC(=N\O)/C(C)=C/c1ccc(F)cc1 [A-079]
-- reply 37

###

assay: Ratio of drug concentration in rat brain to plasma at 2 mg/kg, po; format: ADME, organism-based; conditions: read-out: BPR
ASSAY_READOUT: Kp
Enter the number alone.

-- ask Look up Kp: CCC(=N\O)/C(C)=C/c1ccc(F)cc1
-- reply 0.75

###

test: Drug concentration in rat at 20.7 mg/kg, po measured after 60 mins; format: ADME, organism-based; conditions: in vivo, read-out: Drug uptake
ASSAY_READOUT: concentration at 1 h (µM)
Give a bare numeral; the unit µM is implied.

-- ask Look up concentration at 1 h: CCC(=N\O)/C(C)=C/c1ccc(F)cc1
-- reply 6.22

###

assay: Stability of compound in aqueous tetrahydrofuran buffer at pH 7.5 assessed as compound remaining incubated for 16 hrs in presence of glutathione by nuclear magnetic resonance spectroscopy based LC-MS analysis; type: physicochemical; conditions: aqueous tetrahydrofuran buffer with glutathione, read-out: Stability
ASSAY_READOUT: remaining at 16 h

-- ask Look up remaining at 16 h: CCC(=N\O)/C(C)=C/c1ccc(F)cc1
-- reply > 95%

###

target: Transient receptor potential cation channel subfamily A member 1 (Mus musculus, UniProt Q8BLA8); experiment: Antagonist activity at mouse TRPA1 expressed in HEK293F cells assessed as reduction in AITC-induced increase in intracellular Ca2+ level by FLIPR-based Ca2+ assay
Sequence (Q8BLA8 whole entry): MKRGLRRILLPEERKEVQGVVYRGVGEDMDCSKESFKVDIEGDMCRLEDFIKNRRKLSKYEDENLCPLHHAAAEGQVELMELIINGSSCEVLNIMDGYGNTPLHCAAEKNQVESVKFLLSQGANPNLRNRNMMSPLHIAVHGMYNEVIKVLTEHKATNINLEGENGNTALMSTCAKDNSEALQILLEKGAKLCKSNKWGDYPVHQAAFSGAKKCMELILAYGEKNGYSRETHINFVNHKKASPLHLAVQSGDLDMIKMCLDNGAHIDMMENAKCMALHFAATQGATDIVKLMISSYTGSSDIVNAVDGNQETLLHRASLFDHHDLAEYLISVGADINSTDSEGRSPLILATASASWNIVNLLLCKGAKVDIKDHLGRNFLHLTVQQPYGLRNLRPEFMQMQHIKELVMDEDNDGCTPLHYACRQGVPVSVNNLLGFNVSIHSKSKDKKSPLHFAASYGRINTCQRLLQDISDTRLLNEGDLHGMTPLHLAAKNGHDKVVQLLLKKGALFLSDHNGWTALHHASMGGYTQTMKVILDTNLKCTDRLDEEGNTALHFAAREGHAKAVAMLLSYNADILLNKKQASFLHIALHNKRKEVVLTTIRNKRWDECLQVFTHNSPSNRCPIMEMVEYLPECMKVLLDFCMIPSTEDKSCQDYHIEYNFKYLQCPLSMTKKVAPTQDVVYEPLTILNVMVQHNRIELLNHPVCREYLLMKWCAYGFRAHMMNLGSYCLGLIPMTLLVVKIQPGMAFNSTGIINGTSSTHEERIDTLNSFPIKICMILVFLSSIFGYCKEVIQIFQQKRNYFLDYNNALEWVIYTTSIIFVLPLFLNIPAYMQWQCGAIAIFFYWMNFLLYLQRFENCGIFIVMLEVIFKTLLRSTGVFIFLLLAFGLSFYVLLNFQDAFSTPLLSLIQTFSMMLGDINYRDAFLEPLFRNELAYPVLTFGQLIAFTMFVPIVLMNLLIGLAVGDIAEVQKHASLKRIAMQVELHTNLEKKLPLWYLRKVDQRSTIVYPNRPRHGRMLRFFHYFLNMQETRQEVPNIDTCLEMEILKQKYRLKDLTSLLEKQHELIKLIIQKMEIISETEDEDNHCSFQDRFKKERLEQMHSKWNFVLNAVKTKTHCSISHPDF
ASSAY_READOUT: IC50 (nM)
Give a bare numeral; the unit nM is implied.

-- ask Look up IC50: CCC(=N\O)/C(C)=C/c1ccc(F)cc1 [A-079]
-- reply 296

###

experiment: Aqueous solubility of compound; format: physicochemical; conditions: buffer
ASSAY_READOUT: solubility

-- ask Look up solubility: CCC(=N\O)/C(C)=C/c1ccc(F)cc1 [A-079]
-- reply > 300 µM

###

molecular target: Transient receptor potential cation channel subfamily A member 1 (Rattus norvegicus, UniProt Q6RI86); test: Antagonist activity at rat TRPA1 expressed in HEK293F cells assessed as reduction in AITC-induced increase in intracellular Ca2+ level by FLIPR-based Ca2+ assay; type: cell-based
Sequence (Q6RI86 whole entry): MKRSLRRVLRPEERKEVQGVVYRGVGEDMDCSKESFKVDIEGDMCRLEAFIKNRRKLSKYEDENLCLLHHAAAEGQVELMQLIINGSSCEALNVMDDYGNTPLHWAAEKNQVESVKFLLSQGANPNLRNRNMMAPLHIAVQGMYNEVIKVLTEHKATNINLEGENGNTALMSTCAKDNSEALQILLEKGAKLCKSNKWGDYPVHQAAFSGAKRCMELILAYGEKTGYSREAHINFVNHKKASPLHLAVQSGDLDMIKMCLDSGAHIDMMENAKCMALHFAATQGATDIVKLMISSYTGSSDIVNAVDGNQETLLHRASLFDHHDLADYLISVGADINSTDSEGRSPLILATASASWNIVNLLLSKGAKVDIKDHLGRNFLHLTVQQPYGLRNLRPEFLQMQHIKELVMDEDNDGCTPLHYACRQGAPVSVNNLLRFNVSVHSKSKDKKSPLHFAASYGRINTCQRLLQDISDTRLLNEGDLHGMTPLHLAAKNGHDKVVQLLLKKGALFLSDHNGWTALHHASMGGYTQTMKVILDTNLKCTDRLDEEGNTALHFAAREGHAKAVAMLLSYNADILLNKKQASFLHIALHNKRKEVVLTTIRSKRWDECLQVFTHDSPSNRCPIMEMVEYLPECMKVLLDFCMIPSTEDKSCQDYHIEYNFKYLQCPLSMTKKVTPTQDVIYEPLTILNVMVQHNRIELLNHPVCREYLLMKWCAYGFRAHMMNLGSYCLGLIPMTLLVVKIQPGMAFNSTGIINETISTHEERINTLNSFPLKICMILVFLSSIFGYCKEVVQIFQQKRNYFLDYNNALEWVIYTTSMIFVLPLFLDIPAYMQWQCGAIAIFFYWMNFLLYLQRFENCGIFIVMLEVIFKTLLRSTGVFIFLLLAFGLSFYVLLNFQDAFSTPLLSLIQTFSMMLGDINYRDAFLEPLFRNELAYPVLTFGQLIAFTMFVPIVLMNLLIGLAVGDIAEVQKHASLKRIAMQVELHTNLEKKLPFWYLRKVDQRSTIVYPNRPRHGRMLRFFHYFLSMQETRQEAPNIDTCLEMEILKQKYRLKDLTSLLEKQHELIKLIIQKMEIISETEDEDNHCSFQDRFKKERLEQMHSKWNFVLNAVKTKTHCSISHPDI
# Lookup of reported pIC50 keyed by entry
Quick note: pIC50 values are minus log10 of concentrations in mol/L.

Answered examples (2):
CC(C)c1ccc(NC(=O)Cn2cnc3c2c(=O)n(C)c(=O)n3C)cc1	5.16
CC(=N/O)/C(C)=C/c1ccc(Cl)cc1	5.06

-- ask Look up pIC50: CCC(=N\O)/C(C)=C/c1ccc(F)cc1
-- reply 6.54

###

# Lookup of reported pIC50 keyed by entry
target: Transient receptor potential cation channel subfamily A member 1 (Homo sapiens); experiment: Antagonist activity at recombinant human TRPA1 expressed in HEK293F cells assessed as reduction in AITC-induced increase in intracellular Ca2+ level by FLIPR-based Ca2+ assay; type: cell-based
Sequence (O75762 whole entry): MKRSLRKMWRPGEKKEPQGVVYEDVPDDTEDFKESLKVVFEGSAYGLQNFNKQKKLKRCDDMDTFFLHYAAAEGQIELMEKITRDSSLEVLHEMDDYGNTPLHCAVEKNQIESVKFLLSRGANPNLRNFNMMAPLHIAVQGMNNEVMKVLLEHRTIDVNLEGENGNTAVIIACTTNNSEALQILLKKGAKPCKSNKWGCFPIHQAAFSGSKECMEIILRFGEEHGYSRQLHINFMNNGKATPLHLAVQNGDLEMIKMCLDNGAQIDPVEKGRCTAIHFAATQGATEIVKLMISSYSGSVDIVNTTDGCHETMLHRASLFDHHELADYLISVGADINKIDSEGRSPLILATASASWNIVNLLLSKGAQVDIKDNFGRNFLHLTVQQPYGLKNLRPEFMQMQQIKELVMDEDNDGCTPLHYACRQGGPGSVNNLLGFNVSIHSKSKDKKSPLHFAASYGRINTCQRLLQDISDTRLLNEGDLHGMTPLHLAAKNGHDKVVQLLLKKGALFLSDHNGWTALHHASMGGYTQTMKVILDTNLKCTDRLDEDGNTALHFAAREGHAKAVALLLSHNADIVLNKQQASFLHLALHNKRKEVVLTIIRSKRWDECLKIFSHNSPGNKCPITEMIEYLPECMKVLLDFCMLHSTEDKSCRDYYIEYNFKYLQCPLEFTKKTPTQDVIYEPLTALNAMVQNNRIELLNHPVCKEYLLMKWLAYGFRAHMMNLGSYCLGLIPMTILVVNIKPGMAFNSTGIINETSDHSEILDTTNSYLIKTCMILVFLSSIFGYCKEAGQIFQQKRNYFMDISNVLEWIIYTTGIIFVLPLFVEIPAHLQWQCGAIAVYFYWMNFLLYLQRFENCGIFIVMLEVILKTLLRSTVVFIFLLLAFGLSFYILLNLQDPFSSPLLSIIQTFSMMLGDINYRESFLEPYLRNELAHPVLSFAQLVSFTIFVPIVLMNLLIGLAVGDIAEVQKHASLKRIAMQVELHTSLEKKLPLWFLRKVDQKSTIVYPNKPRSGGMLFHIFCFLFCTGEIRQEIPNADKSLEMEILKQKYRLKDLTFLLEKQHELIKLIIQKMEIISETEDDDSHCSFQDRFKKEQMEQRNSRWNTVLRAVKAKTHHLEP
Quick note: pIC50 values are minus log10 of concentrations in mol/L.

CC(=N/O)/C(C)=C/c1ccc(Cl)cc1	5.16

Consider now this further molecule.
-- ask Look up pIC50: CC(C)c1ccc(NC(=O)Cn2cnc3c2c(=O)n(C)c(=O)n3C)cc1
-- reply 5.16
